Reported pIC50 values for a set of compounds
System: Plasmodium falciparum
Assay: Antimicrobial activity against chloroquine-resistant Plasmodium falciparum K1 by ELISA
Type: functional, organism-based
pIC50: −log10 of the molar value.

Compound: CCNCc1cc(Nc2ccnc3cc(Cl)ccc23)ccc1O [DESETHYL AMODIAQUINE]
Target: Plasmodium falciparum
pIC50: 6.58
--
Compound: Clc1ccc2c(N3CCN(CCCN4CCN(c5ccnc6cc(Cl)ccc56)CC4)CC3)ccnc2c1 [PIPERAQUINE]
Target: Plasmodium falciparum
pIC50: 7.90
--
Compound: C[C@H]1[C@@H](O)O[C@@H]2O[C@@]3(C)CC[C@H]4[C@H](C)CC[C@@H]1[C@@]24OO3 [ARTENIMOL]
Target: Plasmodium falciparum
pIC50: 9.31
--
Compound: C=C[C@H]1CN2CC[C@H]1C[C@H]2[C@H](O)c1ccnc2ccc(OC)cc12 [QUININE]
Target: Plasmodium falciparum
pIC50: 6.56
--
Compound: CCCCN(CCCC)CC(O)c1cc(Cl)cc2c1-c1ccc(Cl)cc1/C2=C/c1ccc(Cl)cc1 (stereo not given) [LUMEFANTRINE]
Target: Plasmodium falciparum
pIC50: 9.51
